Origin of measurements: the supplement of paper PMC10065799

- assay_system: Grb2 SH2 (UniProt P62993)
- Sequence (P62993 whole entry, looked up, the tested form may be a part): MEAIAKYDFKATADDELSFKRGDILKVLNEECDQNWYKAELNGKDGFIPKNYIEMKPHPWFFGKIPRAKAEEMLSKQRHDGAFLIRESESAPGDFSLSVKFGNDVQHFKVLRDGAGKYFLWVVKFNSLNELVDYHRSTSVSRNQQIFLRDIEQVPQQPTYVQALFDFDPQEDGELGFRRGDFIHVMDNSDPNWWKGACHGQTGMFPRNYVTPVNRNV
- test_details: SH2 binding enrichment of the phosphorylated peptide, bacterial display (enrichment ratio); higher = better substrate or ligand; peptides without Tyr show the background;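 further: peptide library displayed on the E. coli surface as eCPX fusions, selected cells deep-sequenced, score is each peptide's frequency after selection divided by its frequency in the input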
parameter: SH2 binding enrichment
// keep it numeric: no unit symbol after the value

// known answers, use as guide
macromolecule_sequence | parameter | reading
GGQSVYHVHLH [HINT1_Y109] | SH2 binding enrichment | 1.19
ATDLAYFLVRE [ASL_Y375_K380E_YF] | SH2 binding enrichment | 0.827
SKEPYYVHCIK [MYO1D_Y586_R588H] | SH2 binding enrichment | 1.16

Q) Query (sequence): YETSHYLASPD [CTNND2_Y1217_P1218L] ; field requested: SH2 binding enrichment
A) 1.11

Q) Query (sequence): TIQSMYGCDVG [HLA-B_Y123_L119I] ; field requested: SH2 binding enrichment
A) 0.909

Q) Query (sequence): KGEDFYYVTCH [FHL1_Y149_C150Y] ; field requested: SH2 binding enrichment
A) 0.636

Q) Query (sequence): DVLEFYNSKKT [PAK1_Y131] ; field requested: SH2 binding enrichment
A) 0.731
